# study_target: Leucine--tRNA ligase, cytoplasmic (Homo sapiens)
# assay_procedure: Inhibition of leucyl-tRNA synthetase (unknown origin) expressed in HEK293 cells assessed as inhibition of leucine-induced mTORC1-mediated S6 kinase phosphorylation pre-treated at 1 mM followed by leucine stimulation for 10 mins by immunoblotting analysis
# Type: cell-based
Calls of active or inactive are those of the source. The rule behind the calls is not given here.
Outcome codes: yes (1) for active, no (0) for inactive

| query_smiles | qualitative_label |
| --- | --- |
| CC(C)C[C@H](N)[C@H](C)O | no (0) |
| CC(C)C[C@H](N)CCN | no (0) |
| CC(C)C[C@H](N)CNS(C)(=O)=O | no (0) |
| CC(=O)NC[C@@H](N)CC(C)C | no (0) |
| CC(C)C[C@H]1CNC(=O)N1 | yes (1) |
| CC(C)C[C@H](N)/C=N/O | no (0) |
| CC(C)C[C@H](N)COS(C)(=O)=O | no (0) |
| CC(C)C[C@H](N)CCO | no (0) |
| CC(C)C[C@H](N)CNO | yes (1) |
| CC(C)C[C@H](N)CO | yes (1) |
| COC[C@@H](N)CC(C)C | no (0) |
| CC(C)C[C@H](N)CN | no (0) |
| CC(C)Cc1ncc[nH]1 | yes (1) |
| CC(C)C[C@H](N)[C@@H](C)O | no (0) |
| CC(C)C[C@H]1COC(=O)N1 | yes (1) |
